The values you see were collected from ChEMBL document CHEMBL1777813.

target: Vascular endothelial growth factor receptor 2 (Homo sapiens, UniProt P35968)
Sequence (P35968 whole entry): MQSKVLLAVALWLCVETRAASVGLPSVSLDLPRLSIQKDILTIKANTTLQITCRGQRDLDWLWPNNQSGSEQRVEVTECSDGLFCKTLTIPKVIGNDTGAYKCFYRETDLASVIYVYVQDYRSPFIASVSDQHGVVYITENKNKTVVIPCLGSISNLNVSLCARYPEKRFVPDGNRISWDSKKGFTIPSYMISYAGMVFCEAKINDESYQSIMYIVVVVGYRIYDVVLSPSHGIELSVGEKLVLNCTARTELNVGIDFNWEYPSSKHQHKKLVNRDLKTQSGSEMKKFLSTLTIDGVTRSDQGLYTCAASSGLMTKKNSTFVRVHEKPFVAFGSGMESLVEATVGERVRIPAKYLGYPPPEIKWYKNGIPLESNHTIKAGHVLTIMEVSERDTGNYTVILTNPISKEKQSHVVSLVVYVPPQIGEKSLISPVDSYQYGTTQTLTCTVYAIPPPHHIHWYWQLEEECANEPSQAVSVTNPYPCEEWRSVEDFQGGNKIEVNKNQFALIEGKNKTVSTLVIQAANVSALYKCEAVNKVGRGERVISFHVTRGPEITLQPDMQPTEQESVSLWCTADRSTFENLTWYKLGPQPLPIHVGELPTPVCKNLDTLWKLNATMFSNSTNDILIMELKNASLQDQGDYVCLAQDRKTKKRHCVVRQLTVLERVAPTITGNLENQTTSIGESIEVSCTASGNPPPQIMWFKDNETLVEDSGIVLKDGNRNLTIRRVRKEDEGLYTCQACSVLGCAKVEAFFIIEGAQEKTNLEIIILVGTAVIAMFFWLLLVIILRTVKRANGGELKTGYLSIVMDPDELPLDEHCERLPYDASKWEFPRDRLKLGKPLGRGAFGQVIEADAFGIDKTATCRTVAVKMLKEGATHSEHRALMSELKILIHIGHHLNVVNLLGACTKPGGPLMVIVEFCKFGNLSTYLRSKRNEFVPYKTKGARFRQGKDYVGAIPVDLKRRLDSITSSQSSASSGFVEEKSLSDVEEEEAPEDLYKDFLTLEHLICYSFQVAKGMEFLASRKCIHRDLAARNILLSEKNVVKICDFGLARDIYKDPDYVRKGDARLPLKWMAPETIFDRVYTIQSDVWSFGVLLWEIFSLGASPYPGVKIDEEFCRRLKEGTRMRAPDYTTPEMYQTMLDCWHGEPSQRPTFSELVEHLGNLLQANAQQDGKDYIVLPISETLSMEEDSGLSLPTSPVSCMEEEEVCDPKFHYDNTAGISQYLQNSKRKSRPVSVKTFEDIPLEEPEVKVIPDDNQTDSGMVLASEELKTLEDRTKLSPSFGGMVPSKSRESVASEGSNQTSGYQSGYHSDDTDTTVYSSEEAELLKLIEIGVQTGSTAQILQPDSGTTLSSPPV
ENDPOINT NAME: IC50 (nM)
# number only, unit nM dropped from output

Ask: Lab request: please report IC50 under test system Vascular endothelial growth factor receptor 2 (Homo sapiens, UniProt P35968) for CC1(C)c2cc(C3CCN(C4COC4)CC3)ccc2C(=O)c2c1[nH]c1cc(C#N)ccc21
Result: 100

###

experiment: Clearance in human liver microsomes at 1 uM after 30 mins in presence of NADPH; type: ADME, Microsome
Binning of microsomal CLint at 1 µM into classes: interval 1: < 10 µL/min/mg; interval 2: ≥ 10 µL/min/mg and < 40 µL/min/mg; interval 3: ≥ 40 µL/min/mg

Solved cases below.
{"columns": ["SUBSTANCE SMILES", "LABEL VALUE"],
 "data": [
  ["CC1(C)c2cc(N3CCC(O)CC3)ccc2C(=O)c2c1[nH]c1cc(C#N)ccc21", "interval 1"],
  ["CC1(C)c2cc(N3CCN(C4COC4)CC3)ccc2C(=O)c2c1[nH]c1cc(C#N)ccc21", "interval 1"],
  ["CCN(CC)CCOc1ccc2c(c1)C(C)(C)c1[nH]c3cc(C#N)ccc3c1C2=O", "interval 3"],
  ["CC1(C)c2cc(N3CCN(S(C)(=O)=O)CC3)ccc2C(=O)c2c1[nH]c1cc(C#N)ccc21", "interval 2"],
  ["CC1(C)c2cc(OCCN3CCS(=O)(=O)CC3)ccc2C(=O)c2c1[nH]c1cc(C#N)ccc21", "interval 3"],
  ["CC1(C)c2cc(OCCNC(N)=O)ccc2C(=O)c2c1[nH]c1cc(C#N)ccc21", "interval 1"],
  ["CC(C)N1CCN(c2ccc3c(c2)C(C)(C)c2[nH]c4cc(C#N)ccc4c2C3=O)CC1", "interval 3"],
  ["CC(=O)NCCOc1ccc2c(c1)C(C)(C)c1[nH]c3cc(C#N)ccc3c1C2=O", "interval 1"]
]}

Below: the item to evaluate.
Ask: Class? Entry: CC1(C)c2cc(N3CCOCC3)ccc2C(=O)c2c1[nH]c1cc(C#N)ccc21
Result: interval 2

###

test: Clearance in mouse liver microsomes at 1 uM after 30 mins in presence of NADPH; type: ADME, Microsome
ENDPOINT NAME: microsomal CLint at 1 µM (µL/min/mg)
# number only, unit µL/min/mg dropped from output

Would you please look over these solved cases?
{"columns": ["SUBSTANCE SMILES", "ENDPOINT NAME", "ENDPOINT VALUE"],
 "data": [
  ["CC1(C)c2cc(OCCNC(N)=O)ccc2C(=O)c2c1[nH]c1cc(C#N)ccc21", "microsomal CLint at 1 µM", 6.8],
  ["CC1(C)c2cc(N3CCC(O)CC3)ccc2C(=O)c2c1[nH]c1cc(C#N)ccc21", "microsomal CLint at 1 µM", 24.6],
  ["CC1(C)c2cc(N3CCN(S(C)(=O)=O)CC3)ccc2C(=O)c2c1[nH]c1cc(C#N)ccc21", "microsomal CLint at 1 µM", 15.8],
  ["CC1(C)c2cc(N3CCOCC3)ccc2C(=O)c2c1[nH]c1cc(C#N)ccc21", "microsomal CLint at 1 µM", 8.1]
]}

Ask: Which value of microsomal CLint at 1 µM has been reported for CCN(CC)CCOc1ccc2c(c1)C(C)(C)c1[nH]c3cc(C#N)ccc3c1C2=O in the records?
Result: 51.4

Ask: Please do the same for CC(C)N1CCN(c2ccc3c(c2)C(C)(C)c2[nH]c4cc(C#N)ccc4c2C3=O)CC1 as well.
Result: 23.1

###

biological target: RAF proto-oncogene serine/threonine-protein kinase (Homo sapiens)
Sequence (P04049 whole entry): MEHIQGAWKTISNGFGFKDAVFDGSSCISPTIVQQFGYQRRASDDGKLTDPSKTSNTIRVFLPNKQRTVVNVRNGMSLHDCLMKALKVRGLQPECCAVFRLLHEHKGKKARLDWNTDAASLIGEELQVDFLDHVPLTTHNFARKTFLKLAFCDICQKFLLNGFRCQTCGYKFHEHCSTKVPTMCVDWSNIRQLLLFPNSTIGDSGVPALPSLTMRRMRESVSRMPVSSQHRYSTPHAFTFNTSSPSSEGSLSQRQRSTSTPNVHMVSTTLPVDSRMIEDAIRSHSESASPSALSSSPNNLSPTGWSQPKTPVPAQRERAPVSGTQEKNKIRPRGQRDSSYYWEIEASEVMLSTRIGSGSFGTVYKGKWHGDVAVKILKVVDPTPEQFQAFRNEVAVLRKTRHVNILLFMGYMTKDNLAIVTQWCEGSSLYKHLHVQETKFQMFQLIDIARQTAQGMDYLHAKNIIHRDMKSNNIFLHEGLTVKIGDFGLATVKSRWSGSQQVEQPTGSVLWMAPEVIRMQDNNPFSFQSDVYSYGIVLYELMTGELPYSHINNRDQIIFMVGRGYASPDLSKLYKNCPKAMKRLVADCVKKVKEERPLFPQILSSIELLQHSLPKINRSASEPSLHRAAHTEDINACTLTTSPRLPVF
pIC50: −log10 of the molar value.
ENDPOINT NAME: pIC50

Ask: Which value of pIC50 has been reported for CC1(C)c2cc(C3CCN(C4COC4)CC3)ccc2C(=O)c2c1[nH]c1cc(C#N)ccc21 in the records?
Result: < 4.30

###

target: UniProt:P21802
Sequence (P21802 whole entry): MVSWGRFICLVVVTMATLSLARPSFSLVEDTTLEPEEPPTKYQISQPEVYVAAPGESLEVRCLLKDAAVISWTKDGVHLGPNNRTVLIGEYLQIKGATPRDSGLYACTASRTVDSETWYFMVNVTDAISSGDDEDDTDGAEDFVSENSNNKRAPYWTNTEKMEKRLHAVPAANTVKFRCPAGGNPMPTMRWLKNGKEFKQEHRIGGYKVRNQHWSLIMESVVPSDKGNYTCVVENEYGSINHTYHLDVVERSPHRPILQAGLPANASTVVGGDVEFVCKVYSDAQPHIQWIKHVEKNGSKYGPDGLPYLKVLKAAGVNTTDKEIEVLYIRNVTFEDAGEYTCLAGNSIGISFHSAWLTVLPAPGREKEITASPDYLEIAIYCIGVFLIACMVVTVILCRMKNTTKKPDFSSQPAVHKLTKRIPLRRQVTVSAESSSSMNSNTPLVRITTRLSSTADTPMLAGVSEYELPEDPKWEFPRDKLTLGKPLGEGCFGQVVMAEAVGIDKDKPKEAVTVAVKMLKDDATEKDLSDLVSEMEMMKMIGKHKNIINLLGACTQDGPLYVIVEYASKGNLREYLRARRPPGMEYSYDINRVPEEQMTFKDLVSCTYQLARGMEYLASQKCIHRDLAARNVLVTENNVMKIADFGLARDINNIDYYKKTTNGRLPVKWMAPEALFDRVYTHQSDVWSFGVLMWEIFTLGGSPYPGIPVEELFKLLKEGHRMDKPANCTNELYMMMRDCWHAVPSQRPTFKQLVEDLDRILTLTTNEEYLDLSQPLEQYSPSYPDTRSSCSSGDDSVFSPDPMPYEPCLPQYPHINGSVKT
ENDPOINT NAME: IC50 (µM)
# number only, unit µM dropped from output

Ask: Lab request: please report IC50 under test system UniProt:P21802 for CC1(C)c2cc(C3CCN(C4COC4)CC3)ccc2C(=O)c2c1[nH]c1cc(C#N)ccc21
Result: 0.36

###

Parameter IC50, tested on ALK tyrosine kinase receptor (Homo sapiens), listed per item.
Sequence (Q9UM73 whole entry): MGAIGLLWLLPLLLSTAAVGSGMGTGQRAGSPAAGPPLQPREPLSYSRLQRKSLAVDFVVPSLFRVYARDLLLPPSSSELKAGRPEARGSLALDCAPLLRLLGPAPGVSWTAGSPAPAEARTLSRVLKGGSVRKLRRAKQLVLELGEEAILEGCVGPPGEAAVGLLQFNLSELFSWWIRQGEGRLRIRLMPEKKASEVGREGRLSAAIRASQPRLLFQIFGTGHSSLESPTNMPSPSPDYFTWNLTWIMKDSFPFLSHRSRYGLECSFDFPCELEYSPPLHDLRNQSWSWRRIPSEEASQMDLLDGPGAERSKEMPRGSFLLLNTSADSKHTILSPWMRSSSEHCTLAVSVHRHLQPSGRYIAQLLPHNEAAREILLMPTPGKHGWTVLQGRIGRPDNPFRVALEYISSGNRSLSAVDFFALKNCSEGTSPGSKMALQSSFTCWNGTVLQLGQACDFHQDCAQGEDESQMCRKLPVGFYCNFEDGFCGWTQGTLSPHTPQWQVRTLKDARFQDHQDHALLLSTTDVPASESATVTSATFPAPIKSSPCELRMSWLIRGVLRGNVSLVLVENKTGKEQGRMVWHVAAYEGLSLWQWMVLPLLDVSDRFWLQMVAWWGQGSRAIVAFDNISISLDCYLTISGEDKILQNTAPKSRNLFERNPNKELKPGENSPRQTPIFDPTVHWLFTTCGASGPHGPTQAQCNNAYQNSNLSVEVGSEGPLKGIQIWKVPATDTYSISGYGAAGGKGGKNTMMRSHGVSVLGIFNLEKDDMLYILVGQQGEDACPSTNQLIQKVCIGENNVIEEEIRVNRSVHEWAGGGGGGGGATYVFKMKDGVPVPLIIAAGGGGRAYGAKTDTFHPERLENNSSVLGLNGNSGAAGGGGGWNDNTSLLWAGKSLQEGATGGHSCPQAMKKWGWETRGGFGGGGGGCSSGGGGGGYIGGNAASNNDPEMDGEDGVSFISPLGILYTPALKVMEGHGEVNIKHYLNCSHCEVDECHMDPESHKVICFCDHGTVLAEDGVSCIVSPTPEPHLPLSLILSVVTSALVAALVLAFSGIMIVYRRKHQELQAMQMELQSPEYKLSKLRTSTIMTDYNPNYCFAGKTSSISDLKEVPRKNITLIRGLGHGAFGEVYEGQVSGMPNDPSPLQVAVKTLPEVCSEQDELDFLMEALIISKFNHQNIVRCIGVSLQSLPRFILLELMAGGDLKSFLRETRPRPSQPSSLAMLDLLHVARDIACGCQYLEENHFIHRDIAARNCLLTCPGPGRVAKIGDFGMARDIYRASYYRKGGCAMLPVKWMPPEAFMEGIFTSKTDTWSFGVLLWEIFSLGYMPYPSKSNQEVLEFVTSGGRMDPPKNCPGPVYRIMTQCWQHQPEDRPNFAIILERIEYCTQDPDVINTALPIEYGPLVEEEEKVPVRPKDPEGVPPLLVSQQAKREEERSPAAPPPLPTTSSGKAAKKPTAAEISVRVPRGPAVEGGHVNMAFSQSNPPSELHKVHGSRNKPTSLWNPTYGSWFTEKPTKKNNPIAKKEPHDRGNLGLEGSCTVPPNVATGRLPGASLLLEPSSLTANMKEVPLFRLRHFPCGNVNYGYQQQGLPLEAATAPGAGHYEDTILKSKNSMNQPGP
# number only, unit nM dropped from output

{"columns": ["SUBSTANCE SMILES", "EXPERIMENTAL SYSTEM", "MEASUREMENT UNITS", "IC50"],
 "data": [
  ["CC1(C)c2cc(N3CCN(C4COC4)CC3)ccc2C(=O)c2c1[nH]c1cc(C#N)ccc21", "ALK tyrosine kinase receptor (Homo sapiens)", "nM", 27]
]}

Ask: Which value of IC50 has been reported for CC1(C)c2cc(N3CCC(O)CC3)ccc2C(=O)c2c1[nH]c1cc(C#N)ccc21 in the records?
Result: 11.4

###

biological target: Protein kinase C beta type (Homo sapiens, UniProt P05771); assay: Inhibition of PKCbeta2 assessed as FLC-SIYRRGSRRWRKL peptide phosphorylation by fluorescence polarization assay
Sequence (P05771 whole entry): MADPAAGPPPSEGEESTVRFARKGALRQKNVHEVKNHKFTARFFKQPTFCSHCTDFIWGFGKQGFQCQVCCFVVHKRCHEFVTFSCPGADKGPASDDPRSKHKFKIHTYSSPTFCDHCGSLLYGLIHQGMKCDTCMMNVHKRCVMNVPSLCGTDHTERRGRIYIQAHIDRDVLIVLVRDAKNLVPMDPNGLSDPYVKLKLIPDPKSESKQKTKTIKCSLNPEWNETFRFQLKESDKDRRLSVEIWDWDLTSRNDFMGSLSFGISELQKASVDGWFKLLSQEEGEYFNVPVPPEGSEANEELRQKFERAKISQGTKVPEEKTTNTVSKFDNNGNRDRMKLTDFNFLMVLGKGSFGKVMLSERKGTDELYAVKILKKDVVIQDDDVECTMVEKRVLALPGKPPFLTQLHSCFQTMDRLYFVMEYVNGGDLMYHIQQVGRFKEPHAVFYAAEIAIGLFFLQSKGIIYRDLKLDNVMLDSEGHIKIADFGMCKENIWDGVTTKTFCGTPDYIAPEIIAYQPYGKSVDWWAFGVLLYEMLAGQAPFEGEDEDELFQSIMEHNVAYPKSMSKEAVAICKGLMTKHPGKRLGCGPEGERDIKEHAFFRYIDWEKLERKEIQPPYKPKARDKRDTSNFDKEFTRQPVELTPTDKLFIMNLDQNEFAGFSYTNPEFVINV
ENDPOINT NAME: IC50

Ask: Which value of IC50 has been reported for CC1(C)c2cc(C3CCN(C4COC4)CC3)ccc2C(=O)c2c1[nH]c1cc(C#N)ccc21 in the records?
Result: > 50 µM
